Target: T1, human glycophorin A in the red blood cell membrane (human, UniProt P02724 20-150)
T1 construct: whole, on cells; used for intact RBC, isolated RBC membranes and transfected cells; the assay field tells which; also called GPA; hGPA
T1 sequence (looked up): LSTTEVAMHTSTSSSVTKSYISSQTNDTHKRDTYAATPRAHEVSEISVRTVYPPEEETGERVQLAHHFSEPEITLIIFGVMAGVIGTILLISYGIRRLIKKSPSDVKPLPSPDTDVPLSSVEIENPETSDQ
Test: FACS, RBC Hu01
QUANTITY_NAME: fluorescence intensity

INSERT INTO assay_data (binder, quantity_name, obs_value) VALUES
  ('Hu6C12-19 (antibody, V domains shown, IgG format; VH.1b + Vk.1b) VH: EVQLVQSGAEVKKPGASVKVSCKASGYTFTTYTIHWVRQAPGQGLEWMGYINPSSDYTRYNPKFKDRVTMTTDTSTSTAYMELRSLRSDDTAVYYCATGTRDYWGQGTTVTVSS VL: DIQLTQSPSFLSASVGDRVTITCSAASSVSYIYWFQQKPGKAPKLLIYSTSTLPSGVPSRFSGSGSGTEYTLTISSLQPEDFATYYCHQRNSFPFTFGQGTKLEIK', 'fluorescence intensity', 1630),
  ('Hu6C12-18 (antibody, V domains shown, IgG format; VH.1a + Vk.1b) VH: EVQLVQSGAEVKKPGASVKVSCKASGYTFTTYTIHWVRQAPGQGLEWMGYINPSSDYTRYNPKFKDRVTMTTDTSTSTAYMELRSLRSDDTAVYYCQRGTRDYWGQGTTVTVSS VL: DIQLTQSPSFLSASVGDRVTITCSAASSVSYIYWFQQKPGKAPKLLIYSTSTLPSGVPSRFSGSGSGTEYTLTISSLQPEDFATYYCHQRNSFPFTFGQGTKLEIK', 'fluorescence intensity', 3),
  ('Hu6C12-13 (antibody, V domains shown, IgG format; VH.1d + Vk.1a) VH: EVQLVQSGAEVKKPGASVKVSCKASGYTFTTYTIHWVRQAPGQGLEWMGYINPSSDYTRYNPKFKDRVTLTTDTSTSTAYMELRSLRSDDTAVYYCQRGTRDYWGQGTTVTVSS VL: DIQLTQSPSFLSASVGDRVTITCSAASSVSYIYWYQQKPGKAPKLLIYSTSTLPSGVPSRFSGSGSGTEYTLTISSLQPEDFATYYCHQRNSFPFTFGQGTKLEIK', 'fluorescence intensity', 3);
